Tested on: MLK1
Construct: gene MAP3K9
assay_setup: concentration: 1 μM,replicates: in singlicate; n = 1;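 also: KINOMEscan kinase panel screen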
Criterion: %Inh meeting or surpassing 4%. Met: Y. Not met: N.

## Task Does %Inh meet or surpass 4% for COc1cc2c(Nc3ccc(NC(=O)c4ccccc4)cc3)ncnc2cc1OCCCN1CCOCC1 [GSK301329] ?
## Result N

## Task Does %Inh meet or surpass 4% for `CS(=O)(=O)c1cccc(CNc2nc(Nc3ccc4c(c3)[C@@H]3C[C@@H]4CNC3=O)ncc2C(F)(F)F)c1` ?
## Result Y

## Task Does %Inh meet or surpass 4% for `O=C1NCCc2[nH]c(-c3ccncc3)cc21` ?
## Result N

## Task Does %Inh meet or surpass 4% for COc1cccc(C2=C(Nc3cccc(Cl)c3)C(=O)NC2=O)c1 [SB-341556] ?
## Result N

## Task Does %Inh meet or surpass 4% for O=C(NCC1CC1)c1ccc(-c2cc(C(=O)NC3CC3)ccc2F)cc1 [GW810445] ?
## Result Y

## Task Does %Inh meet or surpass 4% for COC(=O)c1cccc(NC(=O)NC2CCN(c3ccnc(Nc4cc(OC)c(OC)c(OC)c4)n3)C2)c1 (stereo not shown) [GSK1379767] ?
## Result Y

## Task Does %Inh meet or surpass 4% for `O=C(Nc1ccc(Oc2ccc3nc(NC(=O)C4CC4)cn3n2)c(F)c1)c1cccn(-c2ccccc2)c1=O` ?
## Result Y

## Task Does %Inh meet or surpass 4% for COc1cc(Nc2nccc(N3CCC(NC(=O)c4cccc(C#N)c4)C3)n2)cc(OC)c1OC (stereo not shown) [GSK1379751] ?
## Result Y

## Task Does %Inh meet or surpass 4% for `Cn1ccc2ncnc(Oc3ccc(NC(=O)Nc4ccnc(C(F)(F)F)c4)c(Cl)c3)c21` ?
## Result Y

====

Test system: MST4
assay_setup: concentration: 1 μM,replicates: in singlicate; n = 1
value_type: %Inh (%)
Could you give me the number in %? Just the number is fine.

Record CS(=O)c1ccc(-c2coc3ccc(-c4n[nH]c(=O)o4)cc23)cc1 (centres unmarked) , field %Inh: 5

Record `COC(=O)Nc1nc2cc(Oc3ccc(NC(=O)Nc4cc(C(F)(F)F)ccc4Cl)cc3)ccc2[nH]1.Cl` , field %Inh: 0

Record `CC(=O)Nc1nc2cnc(Nc3cc(NC(=O)c4cccc(CC(C)(C)C#N)c4)ccc3C)nc2s1` , field %Inh: 0

Record `CN(c1cccc(CNc2nc(Nc3ccc4c(c3)CC(=O)N4)ncc2C(F)(F)F)c1)S(C)(=O)=O` , field %Inh: 2

Record `NC(=O)Nc1sc(-c2ccc(F)cc2)cc1C(N)=O` , field %Inh: 25

====

Tested on: NEK6
assay_setup: concentration: 1 μM,replicates: in singlicate; n = 1
Please respond with reported %Inh for every item in the list.
Could you give me the number in %? Just the number is fine.

Record COc1cccc(OC)c1C(=O)Nc1cccc(-c2nn3ccccc3c2-c2ccnc(Nc3cccc(F)c3)n2)c1 [GSK361065] , field %Inh: 17

Record CCNCC(Cc1ccccc1)NC(=O)c1cc(Br)c(-c2ccnc3[nH]ccc23)s1.Cl.Cl (centres unmarked) [GSK1383280] , field %Inh: 0

Record COc1cccc(CNC(=O)NC2CCN(c3ccnc(Nc4cc(OC)c(OC)c(OC)c4)n3)C2)c1 (centres unmarked) [GSK1379765] , field %Inh: 0

Record COC(=O)Nc1nc2cc(Oc3ccc(NC(=O)Nc4cc(C(F)(F)F)ccc4Cl)cc3)ccc2[nH]1.Cl [GW697465] , field %Inh: 0

Record NC(=O)Nc1sc(-c2ccc(F)cc2)cc1C(N)=O [GW789449] , field %Inh: 13

Record COC(=O)c1cccc(NC(=O)NC2CCN(c3ccnc(Nc4cc(OC)c(OC)c(OC)c4)n3)C2)c1 (centres unmarked) [GSK1379767] , field %Inh: 0

Record Cc1ccn2nc(-c3ccc(F)cc3)c(-c3ccncc3)c2c1.Cl [GW457859] , field %Inh: 0

Record `Cn1ccc2ncnc(Oc3ccc(NC(=O)Nc4cc(C(C)(C)C)on4)c(Cl)c3)c21` , field %Inh: 0
